# assay procedure: Cmax in CD-1 mouse at 3 mg/kg, po
# Assay type: ADME, organism-based
# Design: route oral, dose 3 mg/kg
# experimental setup: in vivo
observation type: Cmax
Note: a bare number is incomplete; add the unit.

response.value for "Cc1cnc(-c2ccc(OC(F)(F)F)cc2)n1Cc1ccccc1OCCC[C@@H](C)CC(=O)O" (field: Cmax) = 510 ng/mL

====

pEC50 listing for selected compounds.
# tested on: Peroxisome proliferator-activated receptor alpha (Homo sapiens, UniProt Q07869)
# Sequence (Q07869 whole entry): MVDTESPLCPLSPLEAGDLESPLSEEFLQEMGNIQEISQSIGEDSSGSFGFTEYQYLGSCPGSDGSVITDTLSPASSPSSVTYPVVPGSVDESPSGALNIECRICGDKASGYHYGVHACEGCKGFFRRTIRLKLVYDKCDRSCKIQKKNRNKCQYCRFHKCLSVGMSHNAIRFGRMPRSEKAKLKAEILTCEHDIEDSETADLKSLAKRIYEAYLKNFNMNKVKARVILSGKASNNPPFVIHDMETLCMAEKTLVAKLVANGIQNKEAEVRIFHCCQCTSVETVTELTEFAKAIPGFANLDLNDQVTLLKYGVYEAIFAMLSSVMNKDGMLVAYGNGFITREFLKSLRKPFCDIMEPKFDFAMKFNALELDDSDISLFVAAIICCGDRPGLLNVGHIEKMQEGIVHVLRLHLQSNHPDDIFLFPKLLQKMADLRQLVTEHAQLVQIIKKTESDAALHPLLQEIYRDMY
# assay procedure: Modulator activity at GAL4-fused human PPARalpha LBD (unknown origin) transfected in African green monkey CV1 cells assessed as receptor transactivation by luciferase reporter gene assay
Scale for pEC50: -log10 of concentration given in mol/L; no unit attached.

Reported pEC50 of "Cc1cnc(-c2ccc(Cl)c(F)c2)n1Cc1ccccc1OCCC[C@@H](C)CC(=O)O" : 4.16

Input "C/C(=C\COc1ccccc1Cc1c(-c2ccc(-c3ccco3)cc2)noc1C)CCC(=O)O" . Output pEC50: 5.23

Entry under test: "C/C(=C\COc1ccccc1Cc1c(C)nnn1-c1ccc(-c2ccco2)cc1)CCC(=O)O" . Its pEC50 was 4.77

The recorded pEC50 for "Cc1cnc(-c2ccc(OC(F)F)cc2)n1Cc1ccccc1OCCC[C@@H](C)CC(=O)O" is 4.82

pEC50 reported for this compound "Cc1ccc(-c2ncc(C)n2Cc2ccccc2OCCC[C@@H](C)CC(=O)O)cc1" : 4.11

====

# assay procedure: Volume of distribution at steady state in Wistar rat at 1 mg/kg, iv
# Type: ADME, organism-based
# experimental setup: in vivo, read-out: Vdss
observation type: Vd
Dear colleague, please send the value followed by its unit.

Reported Vd for "Cc1cnc(-c2ccc(OC(F)(F)F)cc2)n1Cc1ccccc1OCCC[C@@H](C)CC(=O)O" was 1.8 L/kg

====

# assay procedure: AUC in CD-1 mouse at 3 mg/kg, iv
# Type: ADME, organism-based
# Design: dose 3 mg/kg
# experimental setup: in vivo
observation type: AUC (ng·h/mL)
Report the figure in ng·h/mL without appending any unit label.

Per the record, "C/C(=C\COc1ccccc1Cc1c(-c2ccc(-c3ccco3)cc2)noc1C)CCC(=O)O" has AUC of 280

Record summary for "C/C(=C\COc1ccccc1Cc1c(C)n[nH]c1-c1ccc(-c2ccco2)cc1)CCC(=O)O" : reported AUC = 380

Recorded result, "C/C(=C\COc1ccccc1Cc1c(C)ncn1-c1ccc(-c2ccco2)cc1)CCC(=O)O" , AUC: 70

AUC measured on "C/C(=C\COc1ccccc1Cc1sc(C)nc1-c1ccc(-c2ccco2)cc1)CCC(=O)O" = 900

"C/C(=C\COc1ccccc1Cc1c(-c2ccc(-c3ccco3)cc2)ncn1C)CCC(=O)O" yielded AUC of 170

Looking up "Cc1cnc(-c2ccc(-c3ccco3)cc2)n1Cc1ccccc1OCCCCCC(=O)O" , I found its AUC recorded as 180

Further cases:
Just so you know, measured AUC for "C/C(=C\COc1ccccc1Cc1c(C)nnn1-c1ccc(-c2ccco2)cc1)CCC(=O)O" came out at 220

Note to self: AUC recorded for "Cc1cnc(-c2ccc(-c3ccco3)cc2)n1Cc1ccccc1OCCCCC(C)(C)C(=O)O" was 400

So, "Cc1cnc(-c2ccc(OC(F)(F)F)cc2)n1Cc1ccccc1OCCC[C@@H](C)CC(=O)O" ? Its AUC was 1250

// AUC lookup, compound = "Cc1cnc(-c2ccc(-c3ccco3)cc2)n1Cc1ccccc1OCCC[C@@H](C)CC(=O)O" , result: 650

For record "C/C(=C\COc1ccccc1Cn1c(C)cnc1-c1ccc(-c2ccco2)cc1)CCC(=O)O" the listed AUC is 300

====

# assay procedure: Protein binding in mouse plasma
# Type: ADME, cell-free
# experimental setup: read-out: PPB (converted)
observation type: fraction unbound
Provide a numeric answer; units are not to be included.

Notebook: "Cc1cnc(-c2ccc(OC(F)(F)F)cc2)n1Cc1ccccc1OCCC[C@@H](C)CC(=O)O" , fraction unbound read as 0.005

====

# assay procedure: Permeability across apical to basolateral side in human Caco2 cells
# Format: ADME, cell-based
# experimental setup: Caco-2, read-out: permeability
observation type: Papp A→B (×10⁻⁶ cm/s)
// units = ×10⁻⁶ cm/s; emit number, no label

Given item "Cc1cnc(-c2ccc(OC(F)(F)F)cc2)n1Cc1ccccc1OCCC[C@@H](C)CC(=O)O" , the value recorded as its Papp A→B is 36

====

# assay procedure: AUC in CD-1 mouse at 1 mg/kg, iv
# Format: ADME, organism-based
# Design: dose 1 mg/kg
# experimental setup: in vivo
Entries and their AUC values follow.
Dear colleague, please send the value followed by its unit.

Recorded result, "C/C(=C\COc1ccccc1Cn1c(C)cnc1-c1ccc(OC(F)(F)F)cc1)CCC(=O)O" , AUC: 240 ng·h/mL

Record summary for "Cc1cnc(-c2ccc(OC(F)(F)F)cc2)n1Cc1ccccc1OCCC[C@@H](C)CC(=O)O" : reported AUC = 503 ng·h/mL

The recorded AUC for "Cc1cnc(-c2ccc(Cl)c(F)c2)n1Cc1ccccc1OCCC[C@@H](C)CC(=O)O" is 440 ng·h/mL

Record summary for "Cc1cnc(-c2ccc(Cl)cc2)n1Cc1ccccc1OCCC[C@@H](C)CC(=O)O" : reported AUC = 752 ng·h/mL

====

# assay procedure: AUC in CD-1 mouse at 3 mg/kg, po
# Type: ADME, organism-based
# Design: dose 3 mg/kg
# experimental setup: in vivo
observation type: AUC

What the record says about "Cc1cnc(-c2ccc(OC(F)(F)F)cc2)n1Cc1ccccc1OCCC[C@@H](C)CC(=O)O" : AUC is 630 ng·h/mL

====

# tested on: Peroxisome proliferator-activated receptor alpha (Homo sapiens)
# Sequence (Q07869 whole entry): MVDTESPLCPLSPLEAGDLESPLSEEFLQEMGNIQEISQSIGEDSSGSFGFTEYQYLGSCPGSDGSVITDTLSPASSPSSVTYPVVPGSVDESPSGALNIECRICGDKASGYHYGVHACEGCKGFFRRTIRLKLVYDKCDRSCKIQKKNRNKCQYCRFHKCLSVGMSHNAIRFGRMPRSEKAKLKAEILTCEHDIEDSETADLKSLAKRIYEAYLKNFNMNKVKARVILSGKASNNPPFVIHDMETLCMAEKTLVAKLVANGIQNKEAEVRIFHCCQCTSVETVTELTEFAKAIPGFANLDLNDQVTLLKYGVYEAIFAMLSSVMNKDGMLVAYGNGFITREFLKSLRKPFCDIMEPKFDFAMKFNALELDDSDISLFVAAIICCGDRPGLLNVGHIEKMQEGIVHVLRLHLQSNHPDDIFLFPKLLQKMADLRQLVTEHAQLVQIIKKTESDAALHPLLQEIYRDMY
# assay procedure: Modulator activity at GAL4-fused human PPARalpha LBD (unknown origin) transfected in African green monkey CV1 cells assessed as receptor transactivation by luciferase reporter gene assay
In plain terms, low EC50, meaning strictly below 7 µM, gives YES, and everything else gives NO.

These solved cases illustrate the format of a correct answer.
*Q* Consider the compound "C/C(=C\COc1ccccc1Cc1c(-c2ccc(-c3ccco3)cc2)ncn1C)CCC(=O)O" . Is its EC50 strictly less than 7 µM?
*A* YES

*Q* Consider "Cc1cnc(-c2ccc(F)cc2)n1Cc1ccccc1OCCC[C@@H](C)CC(=O)O" . Does its EC50 lie strictly below 7 µM?
*A* NO

*Q* I'd appreciate it if you could check whether "C/C(=C\COc1ccccc1Cn1c(C)cnc1-c1ccc(-c2ccco2)cc1)CCC(=O)O" has EC50 smaller than 7 µM.
*A* YES

*Q* Determine whether this compound shows EC50 lower than 7 µM (ties excluded): "Cc1cnc(-c2ccc(Cl)cc2)n1Cc1ccccc1OCCC[C@@H](C)CC(=O)O"
*A* NO

*Q* In the record for "C/C(=C\COc1ccccc1Cc1c(C)n[nH]c1-c1ccc(-c2ccco2)cc1)CCC(=O)O" , is EC50 less than 7 µM?
*A* NO

*Q* Field: below-cutoff. Rule: recorded EC50 strictly less than 7 µM. Subject: "C/C(=C\COc1ccccc1Cc1sc(C)nc1-c1ccc(-c2ccco2)cc1)CCC(=O)O"
*A* NO

New cases:
*Q* Find out if reported EC50 for "C/C(=C\COc1ccccc1Cn1c(C)cnc1-c1ccc(OC(F)(F)F)cc1)CCC(=O)O" is less than 7 µM
*A* YES
